assay-target: cynomolgus monkey D1D2-human D3 chimeric GPVI-human Fc fusion protein (GPVI-FFH-hFc) (cynomolgus monkey (D1, D2) and human …)
Sequence (chain, as listed by the source mutant limits assumed): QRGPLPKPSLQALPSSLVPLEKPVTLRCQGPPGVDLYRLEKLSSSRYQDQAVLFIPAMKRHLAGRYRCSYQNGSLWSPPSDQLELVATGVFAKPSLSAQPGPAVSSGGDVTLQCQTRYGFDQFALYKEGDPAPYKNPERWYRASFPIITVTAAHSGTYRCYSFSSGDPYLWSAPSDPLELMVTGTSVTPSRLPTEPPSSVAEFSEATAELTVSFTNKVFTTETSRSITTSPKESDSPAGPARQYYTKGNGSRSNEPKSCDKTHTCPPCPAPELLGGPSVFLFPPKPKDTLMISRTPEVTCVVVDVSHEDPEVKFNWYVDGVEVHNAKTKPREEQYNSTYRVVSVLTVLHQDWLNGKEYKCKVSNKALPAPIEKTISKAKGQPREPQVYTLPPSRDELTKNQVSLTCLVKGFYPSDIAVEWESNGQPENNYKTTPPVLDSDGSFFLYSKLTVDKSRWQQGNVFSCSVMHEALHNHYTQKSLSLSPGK
protocol-summary: SPR (BIACORE3000), GPVI-hFc coupled to CM5 chip, antibody 1.25-40 nM, bivalent analyte fit
Binary call on Kd with cut-off 0.7 nM: strictly below means 1, and equality or higher means -1.

binder: F1232-37-2 (antibody, V domains shown, mouse monoclonal antibody from hybridoma; also called F1232-37-2 (whole antibody)) VH: VQLQQSGPELVRPGESVKISCKGSGYTFTDYAIHWVKLSHAKSLEWIGVISIYYDDTNYNQKFKGKATMTVDKSSSTAYLELARLTSEDSAIYYCARRRDSSGPYAMDYWGQGTSVTVSS VL: DIVLTQSPASLAVSLGQRATISCRASESVDSYGNSFMHWYQQKPGQPPKLLIYRASNLESGIPARFSGSGSRTDFTLTINPVEADDVATYYCQQSNEDPYTFGGGTKLEIKR
assigned-category: -1
--
binder: F1232-17-1 (antibody, V domains shown, mouse monoclonal antibody from hybridoma) VH: VQLVESGGDLVKPGGSLKLSCAASGFTFSSYGMSWVRQTPDKRLEWVATISSGGSYTYYPDNVKGRFTISRDNAKNTLYLQMSSLNSEDTAMYYCARQVYYFGSCDYWGQGTTLTVSS VL: DIVLTQSPASLAVSLGQRATISCRASESVDNYGISFMHWYQQKPGQPPKLLIYRASNLESGIPARFSGSGSRTDFTLTINPVETDDVATYYCQQSNKDPWTFGGGTKLEIKR
assigned-category: 1

**Query** Determine if F1232-7-1 (antibody, V domains shown, mouse monoclonal antibody from hybridoma) VH: VQLQQSGPELVRPGESVKISCKGSGYTFTDYAIHWVKLSHAKSLEWIGVISIYYDDTNYNQKFKGKATMTVDKSSSTAYMELARLTSEDSAIYYCARRRDSSGPYAMDYWGQGTSVTVSS VL: DIVLTQSPASLAVSLGQRATISCRASESVDSYGNSFMHWYQQKPGQPPKLLIYRASNLESGIPARFSGSGSRTDFTLTINPVEADDVATYYCQQSNEDPYTFGGGTKLEIKR shows Kd strictly lower than 0.7 nM.
**Result** -1

**Query** Dear colleague, could you confirm whether Kd of F1232-18-3 (antibody, V domains shown, mouse monoclonal antibody from hybridoma) VH: VMLVESGGGLVKPGGSLKLSCAASGFTFSSYAMSWVRQTPEKRLEWVATISSGGSYTYYPDSVKGRFTISRDNAKNTLYLQMSSLRSADTAMYYCARDYGYFDYWGQGTTLTVSS VL: DIVLTQSPASLAVSLGQRATISCRASESVDNYGISFMHWYQQKPGQPPKLLFYRASNLESGIPARFSGSGSRTDFTLTINPVETDDVATYYCQQSNTDPRTFGGGTKLEIKR falls below 0.7 nM? Thanks.
**Result** -1
